The values you see were collected from patent US10329307B2.

Target: PAR4 (Homo sapiens (Human), UniProt Q96RI0)
Sequence (Q96RI0 18-385): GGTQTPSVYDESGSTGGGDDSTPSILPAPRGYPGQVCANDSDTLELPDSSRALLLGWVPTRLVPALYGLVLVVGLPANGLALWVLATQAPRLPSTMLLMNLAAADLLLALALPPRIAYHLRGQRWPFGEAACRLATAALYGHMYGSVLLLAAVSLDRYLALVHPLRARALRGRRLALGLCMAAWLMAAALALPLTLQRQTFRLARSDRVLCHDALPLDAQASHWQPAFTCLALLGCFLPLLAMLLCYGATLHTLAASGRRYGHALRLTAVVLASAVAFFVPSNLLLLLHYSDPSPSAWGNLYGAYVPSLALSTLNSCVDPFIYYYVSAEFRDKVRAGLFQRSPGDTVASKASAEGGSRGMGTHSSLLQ
Assay: FLIPR assay in PAR4-expressing HEK293 cells (PAR4 antagonist activity)
Settings: H-Ala-Phe(4-F)-Pro-Gly-Trp-Leu-Val-Lys-Asn-Gly-NH2-induced intracellular calcium mobilization, 11-point curves
For each entry below, report its IC50 value.
Numbers only, in nM.

>>> reported_result("COc1cc(OC[C@@H]2CCCN(c3ccc(F)cc3)C2)c2cc(-c3cn4nc(OC)sc4n3)oc2c1 [Example 72]")
1400
>>> reported_result("CCOC(=O)c1ccc(N2CCC[C@H](COc3cc(OC)cc4oc(-c5cn6nc(OC)sc6n5)cc34)C2)cc1 [Example 31]")
890

Here is the next item to consider.
Provide the documented IC50 with PAR4 (Homo sapiens (Human), UniProt Q96RI0) as the system for COc1cc(OCC2CCCN(c3ccc(Cl)cc3)C2)c2cc(-c3cn4nc(OC)sc4n3)oc2c1 (stereo not drawn) [Example 33] 440
